- study.system: Glutamate receptor ionotropic, AMPA (Rattus norvegicus) (UniProt P19491+P19492+P19493+P19490)
- method.notes: Antagonist activity for [Ca2+] permeable Ionotropic glutamate receptor AMPA expressed in Xenopus oocytes by injection of rat brain mRNA at 1 uM
- Assay type: functional, cell-based
- test.conditions: Oocyte
// reported inhibition per item
Form entry: value (%) — number only.

Worked examples follow.
CN1CCCCC1CNCCCCNCC1CCN(C(=O)Cc2cccc3ccccc23)CC1 (centres undefined): 27
c1ccc2c(CCN3CCC(CNCCCCNCC4CCNCC4)CC3)cccc2c1: 28
CN1CCCC1CNCCCCNCC1CCN(C(=O)Cc2cccc3ccccc23)CC1 (centres undefined): 41

Attention now shifts to the item below.
What value of inhibition has been recorded for this entry: O=C(Cc1cccc2ccccc12)N1CCC(CNCCCCNCCN2CCOCC2)CC1 18

====

Documented pIC50 across a set of molecules
- study.system: Glutamate receptor ionotropic, AMPA (Rattus norvegicus, UniProt P19490+P19491+P19492+P19493)
Entry type: numeric. Quantity: pIC50, the -log10 of concentration in molar units.

# count of solved cases: 4
CN1CCCC1CCNCCCCNCC1CCN(C(=O)Cc2cccc3ccccc23)CC1 (stereo not given): 6.11
NCCCNCCCCNCC1CCN(C(=O)Cc2cccc3ccccc23)CC1: 6.49
O=C(Cc1cccc2ccccc12)N1CCC(CNCCCCNCC2CCCNC2)CC1 (stereo not given): 6.09
O=C(Cc1cccc2ccccc12)N1CCC(CNCCCCNCC2CCN(c3ccncc3)CC2)CC1: 6.77

Now consider a different molecule.
// lookup pIC50 for O=C(Cc1cccc2ccccc12)N1CCC(CNCCCCNCC2CCCN2)CC1 (stereo not given) 6.14

The origin of these recorded values is ChEMBL document CHEMBL1134057.
